Answer each item with its documented pKi.
biological target: Adenosine receptor A3 (Homo sapiens); format: cell membranes, CHO-K1, Membrane; conditions: read-out: Ki; further: in other assays of this panel Not Active means under 50% inhibition at 10 µM;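 further: radioligand binding assay with AB-MECA serving as the labeled ligand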
Sequence (P0DMS8 whole entry): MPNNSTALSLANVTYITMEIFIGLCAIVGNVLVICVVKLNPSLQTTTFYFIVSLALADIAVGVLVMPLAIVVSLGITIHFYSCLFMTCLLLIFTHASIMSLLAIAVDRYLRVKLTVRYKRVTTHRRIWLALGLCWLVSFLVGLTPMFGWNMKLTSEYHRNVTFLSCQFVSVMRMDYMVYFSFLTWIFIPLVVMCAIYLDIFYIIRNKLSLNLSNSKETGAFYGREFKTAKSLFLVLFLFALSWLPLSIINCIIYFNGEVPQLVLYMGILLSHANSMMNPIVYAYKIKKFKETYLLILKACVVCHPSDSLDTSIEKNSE
In plain terms, pKi is the concentration in mol/L turned into minus its base-10 logarithm.

QUERY: Look up pKi: Clc1cc(Cl)c(OCC#CI)cc1Cl [HALOPROGIN]
RESULT: 6.90

QUERY: Look up pKi: CCOC(=O)C1=C(C)NC(C)=C(C(=O)OCC)C1c1ccccc1/C=C/C(=O)OC(C)(C)C [LACIDIPINE]
RESULT: 5.64

QUERY: Look up pKi: CC1(COc2ccc(CC3SC(=O)NC3=O)cc2)CCCCC1 (stereo not drawn) [CIGLITAZONE]
RESULT: 5.76

----------
assay: DRUGMATRIX: Nicotinic Acetylcholine radioligand binding (ligand: [125I] Epibatidine); type: cell membranes, Membrane; settings: imr-32; Not Active = under 50% inhibition at 10 µM
measured.endpoint: Ki

Consider the worked cases shown below.
>  <compound>
O=[As][O-].[Na+] [SODIUM ARSENITE]

>  <reported>
Not Active

$$$$
>  <compound>
CC12CCC(CC1)C(C)(C)O2

>  <reported>
Not Active

$$$$
>  <compound>
NC(N)=Nc1nc(CSCCC(N)=NS(N)(=O)=O)cs1

>  <reported>
Not Active

$$$$
>  <compound>
ClC1=C(Cl)[C@]2(Cl)[C@@H]3[C@@H]4C[C@@H]([C@H]5O[C@@H]45)[C@@H]3[C@@]1(Cl)C2(Cl)Cl

>  <reported>
Not Active

$$$$
>  <compound>
NC(=O)NC(=O)Cc1ccccc1 [PHENACEMIDE]

>  <reported>
Not Active

$$$$

QUERY: Look up Ki: `Clc1cc(Cl)c(OCC#CI)cc1Cl`
RESULT: Not Active

QUERY: Look up Ki: `CO[C@H]1O[C@@H]2O[C@@]3(C)CC[C@H]4[C@H](C)CC[C@@H]([C@H]1C)[C@@]24OO3`
RESULT: Not Active

QUERY: Look up Ki: `O=C(OC[C@H]1O[C@@H](OC(=O)c2cc(O)c(O)c(OC(=O)c3cc(O)c(O)c(O)c3)c2)[C@H](OC(=O)c2cc(O)c(O)c(OC(=O)c3cc(O)c(O)c(O)c3)c2)[C@@H](OC(=O)c2cc(O)c(O)c(OC(=O)c3cc(O)c(O)c(O)c3)c2)[C@@H]1OC(=O)c1cc(O)c(O)c(OC(=O)c2cc(O)c(O)c(O)c2)c1)c1cc(O)c(O)c(OC(=O)c2cc(O)c(O)c(O)c2)c1`
RESULT: Not Active

QUERY: Look up Ki: `CC1=C(/C=C/C(C)=C/C=C/C(C)=C/C(=O)O)C(C)(C)CCC1`
RESULT: Not Active

QUERY: Look up Ki: `CS(=O)(=O)c1ccc(C2=C(c3ccccc3)C(=O)OC2)cc1`
RESULT: Not Active

----------
biological target: UniProtKB P04150; conditions: hela s3
Sequence (P04150 whole entry): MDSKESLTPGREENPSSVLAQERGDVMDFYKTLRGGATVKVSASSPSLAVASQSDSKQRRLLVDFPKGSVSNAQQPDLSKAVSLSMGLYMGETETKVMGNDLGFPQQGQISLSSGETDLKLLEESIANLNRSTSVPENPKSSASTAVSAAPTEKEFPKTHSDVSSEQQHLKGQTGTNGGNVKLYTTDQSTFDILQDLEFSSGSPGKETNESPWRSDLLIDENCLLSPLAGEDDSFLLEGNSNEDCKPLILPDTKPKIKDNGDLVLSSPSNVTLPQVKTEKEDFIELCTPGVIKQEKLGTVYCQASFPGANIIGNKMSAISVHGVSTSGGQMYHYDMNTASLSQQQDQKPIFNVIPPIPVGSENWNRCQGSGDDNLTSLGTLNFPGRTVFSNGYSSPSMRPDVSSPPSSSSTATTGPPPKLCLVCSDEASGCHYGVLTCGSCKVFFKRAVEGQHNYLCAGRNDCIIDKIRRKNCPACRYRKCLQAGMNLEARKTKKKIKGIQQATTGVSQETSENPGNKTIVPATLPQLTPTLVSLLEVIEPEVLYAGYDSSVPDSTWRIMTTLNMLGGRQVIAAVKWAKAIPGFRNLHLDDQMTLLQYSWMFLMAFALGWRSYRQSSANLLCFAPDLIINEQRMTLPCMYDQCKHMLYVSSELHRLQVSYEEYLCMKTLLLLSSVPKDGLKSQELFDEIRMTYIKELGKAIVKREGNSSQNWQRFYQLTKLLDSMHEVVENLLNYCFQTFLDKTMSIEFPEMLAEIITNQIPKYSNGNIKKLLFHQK
measured.endpoint: IC50

Consider the worked cases shown below.
>  <compound>
CC(C)Cn1cnc2c(N)nc3ccccc3c21

>  <IC50>
Not Active

$$$$
>  <compound>
C[C@H](C(=O)O)c1ccc2oc(-c3ccc(F)cc3)nc2c1

>  <IC50>
Not Active

$$$$
>  <compound>
CO[C@H]1O[C@@H]2O[C@@]3(C)CC[C@H]4[C@H](C)CC[C@@H]([C@H]1C)[C@@]24OO3

>  <IC50>
Not Active

$$$$
>  <compound>
COC(=O)Nc1nc2ccc(C(=O)c3ccccc3)cc2[nH]1

>  <IC50>
Not Active

$$$$
>  <compound>
COc1cc([C@@H]2c3cc4c(cc3[C@H](O)[C@H]3COC(=O)[C@H]23)OCO4)cc(OC)c1OC

>  <IC50>
Not Active

$$$$
>  <compound>
Cc1ccnc2c1NC(=O)c1cccnc1N2C1CC1

>  <IC50>
Not Active

$$$$

Turning now to a further record.
QUERY: Look up IC50: `O=C(O)CCc1nc(-c2ccccc2)c(-c2ccccc2)o1`
RESULT: Not Active

----------
target: Muscarinic acetylcholine receptor M5 (Homo sapiens); type: cell membranes, CHO-K1, Membrane; details: cho-k1; further: in other assays of this panel Not Active means under 50% inhibition at 10 µM
Sequence (P08912 whole entry): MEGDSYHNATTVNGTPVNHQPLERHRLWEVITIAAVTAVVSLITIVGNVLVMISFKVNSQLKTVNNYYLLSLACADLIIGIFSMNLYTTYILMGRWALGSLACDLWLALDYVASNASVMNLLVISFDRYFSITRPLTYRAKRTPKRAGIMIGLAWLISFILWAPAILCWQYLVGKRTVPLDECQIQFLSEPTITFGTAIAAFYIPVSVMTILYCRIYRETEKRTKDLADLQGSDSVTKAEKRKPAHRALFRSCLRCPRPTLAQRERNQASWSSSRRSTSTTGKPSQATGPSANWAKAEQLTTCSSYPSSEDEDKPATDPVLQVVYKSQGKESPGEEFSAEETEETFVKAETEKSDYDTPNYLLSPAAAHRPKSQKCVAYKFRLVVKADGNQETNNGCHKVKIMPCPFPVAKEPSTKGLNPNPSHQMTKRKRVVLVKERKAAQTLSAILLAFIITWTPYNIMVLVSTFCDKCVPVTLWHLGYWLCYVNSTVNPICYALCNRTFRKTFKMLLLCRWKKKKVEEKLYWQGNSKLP

>  <compound>
CO[C@@H]1[C@@H](OC)[C@H](C)[C@@](O)(CC(=O)O)O[C@H]1[C@H](C)[C@H]1O[C@@]2(CC[C@@](C)([C@H]3CC[C@@](C)([C@@H]4O[C@@H]([C@H]5O[C@](C)(O)[C@H](C)C[C@@H]5C)C[C@@H]4O[C@@H]4C[C@H](OC)[C@@H](OC)[C@H](C)O4)O3)O2)C[C@H](O)[C@H]1C.N

>  <IC50>
Not Active

$$$$
>  <compound>
CCOc1cc(N)c(Cl)cc1C(=O)NCC1CN(Cc2ccc(F)cc2)CCO1 (configuration not stated) [MOSAPRIDE]

>  <IC50>
Not Active

$$$$

----------
target: Alpha-1B adrenergic receptor (Rattus norvegicus, UniProt P15823); experiment: DRUGMATRIX: Alpha-1B adrenergic receptor radioligand binding (ligand: prazosin); type: cell membranes, Wistar, Liver, Membrane; details: Not Active = under 50% inhibition at 10 µM; read-out: IC50
Sequence (P15823 whole entry): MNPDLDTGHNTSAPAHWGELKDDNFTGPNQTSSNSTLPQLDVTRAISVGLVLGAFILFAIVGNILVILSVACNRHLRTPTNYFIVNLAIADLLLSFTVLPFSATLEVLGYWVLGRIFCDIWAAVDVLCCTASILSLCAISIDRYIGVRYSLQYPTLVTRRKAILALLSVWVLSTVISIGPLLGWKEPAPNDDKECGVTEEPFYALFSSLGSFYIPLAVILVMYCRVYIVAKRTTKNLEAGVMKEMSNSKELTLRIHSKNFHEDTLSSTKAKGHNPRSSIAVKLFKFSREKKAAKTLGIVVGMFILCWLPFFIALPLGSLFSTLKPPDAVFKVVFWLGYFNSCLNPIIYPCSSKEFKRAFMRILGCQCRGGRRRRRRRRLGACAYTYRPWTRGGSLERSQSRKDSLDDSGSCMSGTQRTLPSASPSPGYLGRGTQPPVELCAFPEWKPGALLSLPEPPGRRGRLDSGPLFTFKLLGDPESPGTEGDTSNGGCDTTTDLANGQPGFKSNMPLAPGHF
measured.endpoint: IC50 (nM)
Write down the numeric answer in nM and omit the unit.

QUERY: I'm curious: which IC50 was measured for CC(CN1c2ccccc2Sc2ccccc21)N(C)C (configuration not stated) tested on Alpha-1B adrenergic receptor (Rattus norvegicus, UniProt P15823)?
RESULT: 39

QUERY: I'm curious: which IC50 was measured for `CN1C[C@H](CNC(=O)OCc2ccccc2)C[C@@H]2c3cccc4c3c(cn4C)C[C@H]21` tested on Alpha-1B adrenergic receptor (Rattus norvegicus, UniProt P15823)?
RESULT: 262

----------
measured.endpoint: IC50 (µM)
Write down the numeric answer in µM and omit the unit.

QUERY: I'm curious: which IC50 was measured for `CC[C@H](C)[C@@H](CO[C@@H](Cc1ccccc1)C(=O)N[C@@H](CCS(C)(=O)=O)C(=O)OC(C)C)NC[C@@H](N)CS` tested on Cytochrome P450 3A4 (Homo sapiens, UniProt P08684)?; further: in other assays of this panel Not Active means under 50% inhibition at 10 µM
Sequence (P08684 whole entry): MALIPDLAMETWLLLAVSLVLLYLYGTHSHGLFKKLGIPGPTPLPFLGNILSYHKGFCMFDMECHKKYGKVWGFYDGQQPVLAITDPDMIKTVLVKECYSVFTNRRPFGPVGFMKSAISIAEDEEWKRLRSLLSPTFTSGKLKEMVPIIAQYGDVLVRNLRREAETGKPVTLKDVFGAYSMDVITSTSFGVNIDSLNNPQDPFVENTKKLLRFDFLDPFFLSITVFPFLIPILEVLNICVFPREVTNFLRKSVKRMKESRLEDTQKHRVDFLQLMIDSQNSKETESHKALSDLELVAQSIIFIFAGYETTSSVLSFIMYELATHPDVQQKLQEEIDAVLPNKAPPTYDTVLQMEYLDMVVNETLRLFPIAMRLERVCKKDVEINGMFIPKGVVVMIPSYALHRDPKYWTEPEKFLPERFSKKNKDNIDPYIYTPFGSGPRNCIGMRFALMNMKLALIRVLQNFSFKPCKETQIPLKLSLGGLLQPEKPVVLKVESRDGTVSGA
RESULT: 3

----------
Molecular target: UniProt:P19327
Sequence (P19327 whole entry): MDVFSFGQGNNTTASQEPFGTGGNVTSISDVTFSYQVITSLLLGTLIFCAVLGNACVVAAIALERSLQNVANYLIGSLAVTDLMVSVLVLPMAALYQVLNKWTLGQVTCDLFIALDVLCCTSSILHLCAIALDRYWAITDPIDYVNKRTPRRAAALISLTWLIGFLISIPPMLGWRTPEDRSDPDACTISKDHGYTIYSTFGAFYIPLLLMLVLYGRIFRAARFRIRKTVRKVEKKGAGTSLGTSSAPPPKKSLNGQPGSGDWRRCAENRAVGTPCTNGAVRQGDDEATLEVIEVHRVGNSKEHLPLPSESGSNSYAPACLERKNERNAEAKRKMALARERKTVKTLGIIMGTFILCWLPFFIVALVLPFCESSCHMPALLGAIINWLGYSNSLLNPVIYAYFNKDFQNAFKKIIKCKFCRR
Type: cell membranes, CHO-K1, Membrane
Settings: cho-k1

>  <test.smiles>
CCN(CC)C(=S)SSC(=S)N(CC)CC

>  <IC50>
Not Active

$$$$
>  <test.smiles>
C=CCO

>  <IC50>
Not Active

$$$$
>  <test.smiles>
OC[C@H]1O[C@@H]2O[C@H]3[C@H](O)[C@@H](O)[C@@H](O[C@H]4[C@H](O)[C@@H](O)[C@@H](O[C@H]5[C@H](O)[C@@H](O)[C@@H](O[C@H]6[C@H](O)[C@@H](O)[C@@H](O[C@H]7[C@H](O)[C@@H](O)[C@@H](O[C@H]8[C@H](O)[C@@H](O)[C@@H](O[C@H]1[C@H](O)[C@H]2O)O[C@@H]8CO)O[C@@H]7CO)O[C@@H]6CO)O[C@@H]5CO)O[C@@H]4CO)O[C@@H]3CO

>  <IC50>
Not Active

$$$$

----------
target: UniProtKB O76074; test: DRUGMATRIX: Phosphodiesterase PDE5 enzyme inhibition (substrate: [3H]cGMP + cGMP); assay type: tissue-based, Platelet; settings: platelet; Not Active = under 50% inhibition at 10 µM

>  <test.smiles>
CCN1C[C@]2(COC)[C@H](O)C[C@H](OC)[C@@]34[C@@H]5C[C@@]6(O)[C@H](OC(=O)c7ccccc7)[C@@H]5[C@@](OC(C)=O)([C@@H]([C@H](OC)[C@H]23)[C@@H]14)[C@@H](O)[C@@H]6OC

>  <IC50>
Not Active

$$$$
>  <test.smiles>
Cc1cc(C(C)(C)C)c(O)c(C)c1CC1=NCCN1

>  <IC50>
Not Active

$$$$
>  <test.smiles>
COC(=O)C[C@](O)(CCC(C)(C)O)C(=O)O[C@@H]1C(OC)=C[C@]23CCCN2CCc2cc4c(cc2[C@H]13)OCO4

>  <IC50>
Not Active

$$$$
